# pKd listing for each entry below
target: complement C3b, site-specifically biotinylated (human, UniProt P01024 23-667; P01024 749-1663, biotin, site-specific (site not given)); test: SPR
Give only the number. pKd is defined as minus log10 of concentration in molar units.

Consider the reported pKd for these binders:
binder="staphylococcal complement inhibitor SCIN-A, full-length wild type (natural protein) STSLPTSNEYQNEKLANELKSLLDELNVNELATGSLNTYYKRTIKISGQKAMYALKSKDFKKMSEAKYQLQKIYNEIDEALKSKY" value_observed=6.84
binder="SCIN-A.R42A.Q49A (natural protein) STSLPTSNEYQNEKLANELKSLLDELNVNELATGSLNTYYKATIKISGAKAMYALKSKDFKKMSEAKYQLQKIYNEIDEALKSKY" value_observed=4.82
binder="SCIN-A.R42A (natural protein) STSLPTSNEYQNEKLANELKSLLDELNVNELATGSLNTYYKATIKISGQKAMYALKSKDFKKMSEAKYQLQKIYNEIDEALKSKY" value_observed=5.07

// sample SCIN-A.Q49A (natural protein) STSLPTSNEYQNEKLANELKSLLDELNVNELATGSLNTYYKRTIKISGAKAMYALKSKDFKKMSEAKYQLQKIYNEIDEALKSKY , its pKd was 6.66
